// cross-source set; read-out = Ki; system = UniProt P34980
Sequence (P34980 whole entry): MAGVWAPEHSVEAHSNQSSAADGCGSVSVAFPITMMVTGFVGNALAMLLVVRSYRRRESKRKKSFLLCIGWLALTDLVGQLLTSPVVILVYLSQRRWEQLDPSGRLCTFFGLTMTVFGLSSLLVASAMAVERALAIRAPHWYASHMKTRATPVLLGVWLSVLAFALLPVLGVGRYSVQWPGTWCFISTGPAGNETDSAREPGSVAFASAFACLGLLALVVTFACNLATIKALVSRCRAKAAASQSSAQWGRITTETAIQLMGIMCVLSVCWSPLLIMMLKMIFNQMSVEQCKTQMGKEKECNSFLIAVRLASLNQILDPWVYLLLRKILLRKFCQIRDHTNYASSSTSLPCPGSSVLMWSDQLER
experimental_readout: Ki

[[record]]
molecule = "CCN1CCOc2ccc(C(=O)Nc3nnc(-c4c(Cl)cccc4Cl)s3)cc21"
target_of_assay = "UniProt P34980"
result = "6.31 nM"

[[record]]
molecule = "CC(C)C(/C=C1\\OC(=O)NC1=O)c1ccc(-c2ccc3cccc(F)c3c2)[nH]c1=O (centres undefined)"
target_of_assay = "UniProt P34980"
result = "1 nM"

[[record]]
molecule = "O=C(NC/C=C1\\CCCc2cnn(Cc3ccc(Cl)cc3Cl)c21)NS(=O)(=O)c1ccc(Cl)cc1"
target_of_assay = "UniProt P34980"
result = "3.6 nM"

[[record]]
molecule = "CCc1cccc(NC(=O)Nc2cccn(Cc3ccccc3Cl)c2=O)c1"
target_of_assay = "UniProt P34980"
result = "158 nM"

